# Test system: HCC-2998 colon
# Experiment: NCI tumour cell line growth inhibition, 48 h
Reported property: TGI

CCCN(CCC)c1c([N+](=O)[O-])cc(C(=O)N(C)C)cc1[N+](=O)[O-] :: > 100 µM
COc1cc(C)cc(OC)c1/C=C/C(=O)O :: > 100 µM
C=CCC(C)(C(=O)NCCC)C(=O)c1ccccc1O (stereo not drawn) :: > 100 µM
C/C(NC(=O)c1ccccc1)=C(/C(=O)c1ccccc1)[C@@H]1OC(C)(C)O[C@@H]1[C@H]1COC(C)(C)O1 :: 87.6 µM
CC1=CC(=O)/C(=C/N2CCNC2=S)C(=O)O1 :: > 100 µM
CC12CCC(C1)C(C)(C)C2OC(=O)c1ccccc1C(=O)O (stereo not drawn) :: > 100 µM
Cc1nn(C)c(=O)c2nn(-c3ccccc3)c(C)c12 :: > 100 µM
Cc1nc2ccccc2cc1C[N+]12CN3CN(CN(C3)C1)C2 :: 30.8 µM
C=CCNc1cccc2c1C(=O)c1ccccc1C2(O)CC=C (stereo not drawn) :: 37.4 µM
Cc1[nH]nc(C(=O)Nc2n[nH]c3ccccc23)c1[N+](=O)[O-] :: > 100 µM

stdin: Can you share its TGI? I mean this molecule: `COc1c(Cl)c(Cl)c(OC)c2c1C(=O)C=CC2=O`
stdout: > 100 µM

stdin: Can you share its TGI? I mean this molecule: O=C1CC(Cl)c2c(Cl)sc(Cl)c21 (stereo not drawn)
stdout: 5.54 µM

stdin: Can you share its TGI? I mean this molecule: `COc1cc(/C=C/C(=O)c2cc(OC)c(OC)c(OC)c2)cc(OC)c1OC`
stdout: 6.65 µM
